Test system: M. tuberculosis (H37Rv)
PROCEDURE DETAILS: microbe, parasite or virus in culture
Type: cell-based, Mycobacterium tuberculosis
CONDITION DETAILS: Mycobacterium tuberculosis, H37RV; read-out: Wk2_ 7H9/DPPC/ cholesterol/BSA/ Tyloxapol MIC
# key: entry, value: MIC

[
  {
    "CHEM SMILES": "CCOC(=O)c1nc(C)oc1NC(=O)c1c(F)c(F)cc(F)c1F",
    "MIC": "> 50 µM"
  },
  {
    "CHEM SMILES": "CCOC(=O)c1nc(COC)oc1NC(=O)c1c(F)c(F)c(F)c(F)c1F",
    "MIC": "2.3 µM"
  },
  {
    "CHEM SMILES": "CCOC(=O)c1nc(CN(C)C)oc1NC(=O)c1c(F)c(F)c(F)c(F)c1F",
    "MIC": "4.7 µM"
  },
  {
    "CHEM SMILES": "COC(=O)c1cnccc1NC(=O)c1c(F)c(F)c(F)c(F)c1F",
    "MIC": "0.6 µM"
  },
  {
    "CHEM SMILES": "Oc1ncnc2oc(-c3c(F)c(F)c(F)c(F)c3F)nc12",
    "MIC": "9.4 µM"
  },
  {
    "CHEM SMILES": "CN(C)c1ccnc2oc(-c3c(F)c(F)c(F)c(F)c3F)nc12",
    "MIC": "3.1 µM"
  },
  {
    "CHEM SMILES": "CCOC(=O)c1nc(C)oc1NCc1c(F)c(F)c(F)c(F)c1F",
    "MIC": "> 50 µM"
  },
  {
    "CHEM SMILES": "CN(C)c1ncnc2sc(-c3cc(F)c(F)c(F)c3)nc12",
    "MIC": "> 50 µM"
  }
]

----------
# key: entry, value: solubility kinetic
PROCEDURE DETAILS: physchem
Format: physicochemical
CONDITION DETAILS: read-out: Kin. Sol
PROPERTY NAME: solubility kinetic (µM)

[
  {
    "CHEM SMILES": "CCOC(=O)c1nc(C(C)C)oc1NC(=O)c1c(F)c(F)c(F)c(F)c1F",
    "PROPERTY NAME": "solubility kinetic",
    "UNIT DESCRIPTOR": "µM",
    "EXPERIMENTAL VALUE": 195
  },
  {
    "CHEM SMILES": "Cc1nc(C(=O)OC(C)(C)C)c(NC(=O)c2c(F)c(F)c(F)c(F)c2F)o1",
    "PROPERTY NAME": "solubility kinetic",
    "UNIT DESCRIPTOR": "µM",
    "EXPERIMENTAL VALUE": 127
  },
  {
    "CHEM SMILES": "Cc1ncc(NC(=O)c2c(F)c(F)c(F)c(F)c2F)o1",
    "PROPERTY NAME": "solubility kinetic",
    "UNIT DESCRIPTOR": "µM",
    "EXPERIMENTAL VALUE": 105
  },
  {
    "CHEM SMILES": "Cc1nnc(-c2nc(C)oc2NC(=O)c2c(F)c(F)c(F)c(F)c2F)o1",
    "PROPERTY NAME": "solubility kinetic",
    "UNIT DESCRIPTOR": "µM",
    "EXPERIMENTAL VALUE": 174
  },
  {
    "CHEM SMILES": "CCOC(=O)c1nc(C)oc1NS(=O)(=O)c1c(F)c(F)c(F)c(F)c1F",
    "PROPERTY NAME": "solubility kinetic",
    "UNIT DESCRIPTOR": "µM",
    "EXPERIMENTAL VALUE": 171
  },
  {
    "CHEM SMILES": "Cc1noc(-c2nc(C)oc2NC(=O)c2c(F)c(F)c(F)c(F)c2F)n1",
    "PROPERTY NAME": "solubility kinetic",
    "UNIT DESCRIPTOR": "µM",
    "EXPERIMENTAL VALUE": 196
  },
  {
    "CHEM SMILES": "COC(=O)c1ccncc1NC(=O)c1c(F)c(F)c(F)c(F)c1F",
    "PROPERTY NAME": "solubility kinetic",
    "UNIT DESCRIPTOR": "µM",
    "EXPERIMENTAL VALUE": 109
  },
  {
    "CHEM SMILES": "CCOC(=O)c1nc(C)oc1NC(=O)c1c(F)cc(F)c(F)c1F",
    "PROPERTY NAME": "solubility kinetic",
    "UNIT DESCRIPTOR": "µM",
    "EXPERIMENTAL VALUE": 232
  }
]

----------
System: M. tuberculosis (H37Rv)
PROCEDURE DETAILS: microbe, parasite or virus in culture
Format: cell-based, Mycobacterium tuberculosis
CONDITION DETAILS: Mycobacterium tuberculosis, H37RV; read-out: Wk2_7H9/DPPC/ casitone/ Tyloxapol MIC
Could you please mark fulfilled for values of MIC below 0.6 µM and not fulfilled for values at or above it?

[
  {
    "CHEM SMILES": "CN(C)c1ncnc2c1nc(-c1c(F)c(F)c(F)c(F)c1F)n2C",
    "MEASURED TARGET": "M. tuberculosis (H37Rv)",
    "CLASS NAME": "not fulfilled"
  },
  {
    "CHEM SMILES": "CCOC(=O)c1nc(C)oc1NC(=O)c1cc(F)c(F)c(F)c1F",
    "MEASURED TARGET": "M. tuberculosis (H37Rv)",
    "CLASS NAME": "fulfilled"
  },
  {
    "CHEM SMILES": "CCN(CC)c1ncnc2sc(-c3c(F)c(F)c(F)c(F)c3F)nc12",
    "MEASURED TARGET": "M. tuberculosis (H37Rv)",
    "CLASS NAME": "fulfilled"
  },
  {
    "CHEM SMILES": "CN(C)c1ncnc2sc(-c3cc(F)c(F)c(F)c3)nc12",
    "MEASURED TARGET": "M. tuberculosis (H37Rv)",
    "CLASS NAME": "not fulfilled"
  },
  {
    "CHEM SMILES": "CCOC(=O)c1nc(-c2ccccc2)oc1NC(=O)c1c(F)c(F)c(F)c(F)c1F",
    "MEASURED TARGET": "M. tuberculosis (H37Rv)",
    "CLASS NAME": "not fulfilled"
  },
  {
    "CHEM SMILES": "COC(=O)c1c(C)noc1NC(=O)c1c(F)c(F)c(F)c(F)c1F",
    "MEASURED TARGET": "M. tuberculosis (H37Rv)",
    "CLASS NAME": "not fulfilled"
  },
  {
    "CHEM SMILES": "Fc1c(F)c(F)c(-c2nc3c(N4CCOCC4)ncnc3o2)c(F)c1F",
    "MEASURED TARGET": "M. tuberculosis (H37Rv)",
    "CLASS NAME": "fulfilled"
  },
  {
    "CHEM SMILES": "CCOC(=O)c1nc(C)oc1NC(=O)c1c(F)c(F)c(F)c(F)c1F",
    "MEASURED TARGET": "M. tuberculosis (H37Rv)",
    "CLASS NAME": "fulfilled"
  },
  {
    "CHEM SMILES": "CN(C)c1ncnc2sc(-c3c(F)c(F)cc(F)c3F)nc12",
    "MEASURED TARGET": "M. tuberculosis (H37Rv)",
    "CLASS NAME": "not fulfilled"
  },
  {
    "CHEM SMILES": "COC(=O)c1cnccc1NC(=O)c1c(F)c(F)c(F)c(F)c1F",
    "MEASURED TARGET": "M. tuberculosis (H37Rv)",
    "CLASS NAME": "fulfilled"
  },
  {
    "CHEM SMILES": "COC(=O)c1ccncc1NC(=O)c1c(F)c(F)c(F)c(F)c1F",
    "MEASURED TARGET": "M. tuberculosis (H37Rv)",
    "CLASS NAME": "not fulfilled"
  },
  {
    "CHEM SMILES": "CCOC(=O)c1c(NC(=O)c2c(F)c(F)c(F)c(F)c2F)ncn1C",
    "MEASURED TARGET": "M. tuberculosis (H37Rv)",
    "CLASS NAME": "not fulfilled"
  },
  {
    "CHEM SMILES": "CC(=O)c1nc(C)oc1NC(=O)c1c(F)c(F)c(F)c(F)c1F",
    "MEASURED TARGET": "M. tuberculosis (H37Rv)",
    "CLASS NAME": "not fulfilled"
  },
  {
    "CHEM SMILES": "Fc1c(F)c(F)c(-c2nc3cncnc3s2)c(F)c1F",
    "MEASURED TARGET": "M. tuberculosis (H37Rv)",
    "CLASS NAME": "fulfilled"
  },
  {
    "CHEM SMILES": "COC(=O)c1nn(C)cc1NC(=O)c1c(F)c(F)c(F)c(F)c1F",
    "MEASURED TARGET": "M. tuberculosis (H37Rv)",
    "CLASS NAME": "fulfilled"
  },
  {
    "CHEM SMILES": "Cc1noc(-c2nc(C)oc2NC(=O)c2c(F)c(F)c(F)c(F)c2F)n1",
    "MEASURED TARGET": "M. tuberculosis (H37Rv)",
    "CLASS NAME": "not fulfilled"
  },
  {
    "CHEM SMILES": "CCOC(=O)c1nc(C)oc1NCc1c(F)c(F)c(F)c(F)c1F",
    "MEASURED TARGET": "M. tuberculosis (H37Rv)",
    "CLASS NAME": "not fulfilled"
  },
  {
    "CHEM SMILES": "Cc1nc(C(=O)O)c(NC(=O)c2c(F)c(F)c(F)c(F)c2F)o1",
    "MEASURED TARGET": "M. tuberculosis (H37Rv)",
    "CLASS NAME": "not fulfilled"
  },
  {
    "CHEM SMILES": "CCOC(=O)c1nc(C)oc1NS(=O)(=O)c1c(F)c(F)c(F)c(F)c1F",
    "MEASURED TARGET": "M. tuberculosis (H37Rv)",
    "CLASS NAME": "not fulfilled"
  },
  {
    "CHEM SMILES": "CCOC(=O)c1nc(COC)oc1NC(=O)c1c(F)c(F)c(F)c(F)c1F",
    "MEASURED TARGET": "M. tuberculosis (H37Rv)",
    "CLASS NAME": "not fulfilled"
  },
  {
    "CHEM SMILES": "CCOC(=O)c1nc(C)oc1NC(=O)c1c(F)c(F)cc(F)c1F",
    "MEASURED TARGET": "M. tuberculosis (H37Rv)",
    "CLASS NAME": "not fulfilled"
  },
  {
    "CHEM SMILES": "CCOC(=O)c1nc(N(C)C)oc1NC(=O)c1c(F)c(F)c(F)c(F)c1F",
    "MEASURED TARGET": "M. tuberculosis (H37Rv)",
    "CLASS NAME": "fulfilled"
  },
  {
    "CHEM SMILES": "CCOC(=O)c1nc(C(C)C)oc1NC(=O)c1c(F)c(F)c(F)c(F)c1F",
    "MEASURED TARGET": "M. tuberculosis (H37Rv)",
    "CLASS NAME": "fulfilled"
  },
  {
    "CHEM SMILES": "CCOC(=O)c1nc(CN(C)C)oc1NC(=O)c1c(F)c(F)c(F)c(F)c1F",
    "MEASURED TARGET": "M. tuberculosis (H37Rv)",
    "CLASS NAME": "not fulfilled"
  },
  {
    "CHEM SMILES": "Cc1ncc(NC(=O)c2c(F)c(F)c(F)c(F)c2F)o1",
    "MEASURED TARGET": "M. tuberculosis (H37Rv)",
    "CLASS NAME": "not fulfilled"
  },
  {
    "CHEM SMILES": "CCOC(=O)c1nc(C)oc1NC(=O)c1cc(F)c(F)c(F)c1",
    "MEASURED TARGET": "M. tuberculosis (H37Rv)",
    "CLASS NAME": "not fulfilled"
  },
  {
    "CHEM SMILES": "CN(C)c1ncnc2sc(-c3ccccc3)nc12",
    "MEASURED TARGET": "M. tuberculosis (H37Rv)",
    "CLASS NAME": "not fulfilled"
  },
  {
    "CHEM SMILES": "COC(=O)c1cccnc1NC(=O)c1c(F)c(F)c(F)c(F)c1F",
    "MEASURED TARGET": "M. tuberculosis (H37Rv)",
    "CLASS NAME": "not fulfilled"
  },
  {
    "CHEM SMILES": "CN(C)c1ncnc2sc(-c3ccc(F)cc3)nc12",
    "MEASURED TARGET": "M. tuberculosis (H37Rv)",
    "CLASS NAME": "not fulfilled"
  },
  {
    "CHEM SMILES": "Cc1nnc(-c2nc(C)oc2NC(=O)c2c(F)c(F)c(F)c(F)c2F)o1",
    "MEASURED TARGET": "M. tuberculosis (H37Rv)",
    "CLASS NAME": "not fulfilled"
  },
  {
    "CHEM SMILES": "CN(C)c1nccc2oc(-c3c(F)c(F)c(F)c(F)c3F)nc12",
    "MEASURED TARGET": "M. tuberculosis (H37Rv)",
    "CLASS NAME": "not fulfilled"
  },
  {
    "CHEM SMILES": "Cc1nc(C(=O)OC(C)(C)C)c(NC(=O)c2c(F)c(F)c(F)c(F)c2F)o1",
    "MEASURED TARGET": "M. tuberculosis (H37Rv)",
    "CLASS NAME": "fulfilled"
  },
  {
    "CHEM SMILES": "Oc1ncnc2oc(-c3c(F)c(F)c(F)c(F)c3F)nc12",
    "MEASURED TARGET": "M. tuberculosis (H37Rv)",
    "CLASS NAME": "not fulfilled"
  }
]
